molecular target: CaFus1; experiment: SPOT peptide array binding signal intensity (averaged, normalized) (arbitrary units (background-subtracted, floor 0; scale differs between SH3 domains)); higher = stronger binding of the SH3 domain to the peptide
Entries annotated with measured SPOT peptide array binding signal intensity
Answer as a number with no unit attached.

Completed entries (count: 2):
• LLRRTIPKRPFYHVL = 314
• HRRRRVFSIPSLKSI = 1310

Exam item: Answer with reported SPOT peptide array binding signal intensity of LLGRKRPVMERVVDI
Marked response: 398

Exam item: Answer with reported SPOT peptide array binding signal intensity of LKRITSPPLPPRADS
Marked response: 99.5

Exam item: Answer with reported SPOT peptide array binding signal intensity of NILKRRPLKLEAPSK
Marked response: 534
